target under test: recombinant human sphingosine kinase 1 (rhSphK1) (Homo sapiens, UniProt Q9NYA1)
Construct: full-length (1155 bp CDS), 6×His tag, ~50 kDa, E. coli
Sequence (Q9NYA1 whole entry): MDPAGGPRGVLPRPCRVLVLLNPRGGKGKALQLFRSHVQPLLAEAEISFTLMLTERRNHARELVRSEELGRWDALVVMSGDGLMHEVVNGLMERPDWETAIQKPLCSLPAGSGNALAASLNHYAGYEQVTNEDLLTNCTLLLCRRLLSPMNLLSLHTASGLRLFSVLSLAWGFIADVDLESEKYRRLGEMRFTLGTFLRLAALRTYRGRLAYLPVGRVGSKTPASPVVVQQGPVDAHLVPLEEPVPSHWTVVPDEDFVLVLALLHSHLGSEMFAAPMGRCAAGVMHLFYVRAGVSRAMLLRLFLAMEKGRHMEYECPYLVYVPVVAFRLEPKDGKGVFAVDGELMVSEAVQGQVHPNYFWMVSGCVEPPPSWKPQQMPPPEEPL
experimental protocol: Microscale thermophoresis (SphK2 inhibitor used as control)
test readout: pKd
API: returns pKd as number; meaning -log10 of concentration in mol/L.

Inquiry: # return recorded pKd for entry O=C(NCc1ccncc1)C12CC3CC(C1)CC(c1ccc(Cl)cc1)(C3)C2
Reply text: 4.15
